I'd appreciate it if you could supply T/C values for the items below.
# Test system: L1210 leukemia ip in BDF1 mice, survival T/C
# TEST METHOD NOTES: NCI In Vivo Anticancer Drug Screen. Data for tumor model L1210 Leukemia (intraperitoneal) in B6D2F1 (BDF1) mice
# CONDITIONS USED: endpoint: mean survival time; dose: 100.0 mg/kg/injection; schedule: Q04DX003 (ip); vehicle: saline; higher = longer survival
Toxic doses and inconclusive results are not listed.

Data request: Form field - read-out: T/C; system: L1210 leukemia ip in BDF1 mice, survival T/C; submitted item: CCC[N+](=CC1CCCCC1)CCC
Data returned: 104 % of control

Data request: Return T/C measured with L1210 leukemia ip in BDF1 mice, survival T/C given this compound: CN(C)C(=O)C1C2C=CC(CC2)C1C(=O)N(C)C (stereo unspecified)
Data returned: 96 % of control

Data request: Return T/C measured with L1210 leukemia ip in BDF1 mice, survival T/C given this compound: CCOC(=O)C(=O)c1c(C)[nH]c(C(=O)OCC)c1C
Data returned: 98 % of control

Data request: Recall the recorded T/C for COc1cc([N+](=O)[O-])c(C(OC(C)=O)OC(C)=O)cc1Br with L1210 leukemia ip in BDF1 mice, survival T/C and state it.
Data returned: 105 % of control

Data request: Reported T/C for L1210 leukemia ip in BDF1 mice, survival T/C, given CCN(CC)C(=O)Cn1cc(F)c(N)nc1=O ?
Data returned: 92 % of control

Data request: Please tell me: T/C of CCCCNC(=O)NNC(=O)OCC , system L1210 leukemia ip in BDF1 mice, survival T/C?
Data returned: 100 % of control

Data request: // fetch L1210 leukemia ip in BDF1 mice, survival T/C T/C for OCC(O)C1OC(c2ccccc2)OC1C(O)CO (stereo unspecified)
Data returned: 105 % of control

Data request: Give recorded T/C with L1210 leukemia ip in BDF1 mice, survival T/C for the following compound: N#CCCS(=O)(=O)O
Data returned: 95 % of control

Data request: Hi! What's the reported T/C for COc1ccc(/C=C2/CSC/C(=C/c3ccc(OC)c(OC)c3)C2=O)cc1OC on L1210 leukemia ip in BDF1 mice, survival T/C?
Data returned: 103 % of control

Data request: Give T/C (L1210 leukemia ip in BDF1 mice, survival T/C) of the following compound: CC1(C)CC2(C)CC(=O)C1C(C(=O)O)C2C(=O)O (stereo unspecified)
Data returned: 96 % of control

Data request: # query: T/C | item CN1CCC=C(C(=O)N(c2ccccc2)c2ccccc2)C1 | system: L1210 leukemia ip in BDF1 mice, survival T/C
Data returned: 93 % of control

Data request: Write down the reported T/C of CCCN1c2c(nc(N)[nH]c2=O)NCC1CNc1ccc(C(=O)NC(CCC(=O)O)C(=O)O)cc1 (stereo unspecified) , test system: L1210 leukemia ip in BDF1 mice, survival T/C.
Data returned: 108 % of control

Data request: Which measured T/C belongs to CCC(C)C(CC(=O)O)C(=O)O (stereo unspecified) , tested on L1210 leukemia ip in BDF1 mice, survival T/C?
Data returned: 97 % of control

Data request: Recall the recorded T/C for CN(NCc1ccccc1)C(=N)N with L1210 leukemia ip in BDF1 mice, survival T/C and state it.
Data returned: 109 % of control

Data request: Enter reported T/C observed with L1210 leukemia ip in BDF1 mice, survival T/C for Cn1c[n+](C)cc1C(=O)[O-]
Data returned: 97 % of control

Data request: Test system L1210 leukemia ip in BDF1 mice, survival T/C; read-out T/C; what value for CCC(C)C(C(=O)OC1CCN(CC)CC1)c1ccccc1 (stereo unspecified) ?
Data returned: 94 % of control
